# system-tested: TDP-43 WT (UniProt Q13148 Q13148:1-414)
# Sequence (Q13148 whole entry, one chain of several): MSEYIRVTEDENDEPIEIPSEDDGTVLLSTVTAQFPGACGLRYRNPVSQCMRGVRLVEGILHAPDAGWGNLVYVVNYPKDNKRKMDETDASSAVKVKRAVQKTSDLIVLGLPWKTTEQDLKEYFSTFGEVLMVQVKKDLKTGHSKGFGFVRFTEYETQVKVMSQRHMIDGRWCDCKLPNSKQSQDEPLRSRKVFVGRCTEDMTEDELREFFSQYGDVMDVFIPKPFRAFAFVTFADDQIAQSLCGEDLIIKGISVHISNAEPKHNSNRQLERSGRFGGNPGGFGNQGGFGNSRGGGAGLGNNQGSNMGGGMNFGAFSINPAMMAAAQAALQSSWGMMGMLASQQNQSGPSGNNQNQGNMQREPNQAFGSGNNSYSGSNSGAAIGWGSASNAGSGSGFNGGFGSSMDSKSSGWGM
# measurement-protocol: FP; apparent; 300 mM NaCl, 10 mM Tris pH 8.0
# condition-parameters: tags: N-terminal His6-SUMO (Smt3), E. coli BL21(DE3), pET28b(+)-SUMO-TDP43; label: FITC
quantity-kind: Kd (nM)

> print(dat)
                                     binder  quantity.kind  reported.result
1  AGUGUGUGUGUGU (ssRNA, 2'-OMe and PS unless otherwise noted (general statement)) [A(GU)6-FITC]             Kd              0.8

All values here come from patent US20230125788.
